# MEASUREMENT_TARGET: CYP2D6 (Homo sapiens, UniProt P10635)
# Sequence (P10635 whole entry): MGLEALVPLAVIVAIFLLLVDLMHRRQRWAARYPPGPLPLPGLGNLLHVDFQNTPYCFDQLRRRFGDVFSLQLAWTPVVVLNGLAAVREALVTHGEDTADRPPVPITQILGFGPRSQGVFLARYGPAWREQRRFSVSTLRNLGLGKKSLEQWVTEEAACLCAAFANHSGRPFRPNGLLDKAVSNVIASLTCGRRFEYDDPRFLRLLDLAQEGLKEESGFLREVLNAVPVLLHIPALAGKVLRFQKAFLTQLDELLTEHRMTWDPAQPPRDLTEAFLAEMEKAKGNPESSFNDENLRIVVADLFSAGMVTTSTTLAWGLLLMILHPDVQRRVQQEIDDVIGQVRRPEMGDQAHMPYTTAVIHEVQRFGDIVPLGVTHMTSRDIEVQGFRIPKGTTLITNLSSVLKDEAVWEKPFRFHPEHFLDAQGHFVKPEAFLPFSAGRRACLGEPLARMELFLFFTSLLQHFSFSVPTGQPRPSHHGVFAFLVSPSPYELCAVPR
# PROTOCOL_DETAILS: in vitro
# PROTOCOL_CONDITIONS: % Inhibition (set 1)
PARAMETER: inhibition at 3.7 μM (%)
One number for each entry, in %.

CC(C)(CCCCCCCCCCCCC(C)(C)C(=O)O)C(=O)O; 0

Here's the next entry for you.
(Q) So what does the record say about inhibition at 3.7 μM for CC(C)(CCCCCCCCCCC(C)(C)CC(=O)O)CC(=O)O ?
(A) 0

* * *

# MEASUREMENT_TARGET: UniProt P05177
# Sequence (P05177 whole entry): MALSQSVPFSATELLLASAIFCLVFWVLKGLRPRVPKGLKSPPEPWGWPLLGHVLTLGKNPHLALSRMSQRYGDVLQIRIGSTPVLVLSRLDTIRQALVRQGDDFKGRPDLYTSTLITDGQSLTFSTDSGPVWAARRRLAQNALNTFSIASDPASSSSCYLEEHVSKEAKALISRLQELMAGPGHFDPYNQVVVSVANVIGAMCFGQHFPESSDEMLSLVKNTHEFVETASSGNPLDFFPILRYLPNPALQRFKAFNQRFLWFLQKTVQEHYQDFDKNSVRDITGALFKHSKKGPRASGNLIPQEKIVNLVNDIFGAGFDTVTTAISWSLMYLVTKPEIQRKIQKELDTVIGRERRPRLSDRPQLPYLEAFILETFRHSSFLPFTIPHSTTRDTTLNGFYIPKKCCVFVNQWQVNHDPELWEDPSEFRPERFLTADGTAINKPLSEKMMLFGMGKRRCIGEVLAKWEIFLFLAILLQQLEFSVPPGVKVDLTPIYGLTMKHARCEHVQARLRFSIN
# PROTOCOL_DETAILS: in vitro
# PROTOCOL_CONDITIONS: % Inhibition (set 1)
I'd be grateful if you could share measured inhibition at 1.23 μM for these entries.
Numbers only, in %.

CC(C)(CCCCCCCCCCCCC(C)(C)C(=O)O)C(=O)O [M16αα]; 0

Here's the next entry for you.
(Q) Param readout = inhibition at 1.23 μM; param system = UniProt P05177; param query = CC(C)(CCCCCCCCCCC(C)(C)CC(=O)O)CC(=O)O [M16ββ] ; response: value
(A) 0

* * *

# MEASUREMENT_TARGET: CYP2B6 (Homo sapiens)
# Sequence (P20813 whole entry): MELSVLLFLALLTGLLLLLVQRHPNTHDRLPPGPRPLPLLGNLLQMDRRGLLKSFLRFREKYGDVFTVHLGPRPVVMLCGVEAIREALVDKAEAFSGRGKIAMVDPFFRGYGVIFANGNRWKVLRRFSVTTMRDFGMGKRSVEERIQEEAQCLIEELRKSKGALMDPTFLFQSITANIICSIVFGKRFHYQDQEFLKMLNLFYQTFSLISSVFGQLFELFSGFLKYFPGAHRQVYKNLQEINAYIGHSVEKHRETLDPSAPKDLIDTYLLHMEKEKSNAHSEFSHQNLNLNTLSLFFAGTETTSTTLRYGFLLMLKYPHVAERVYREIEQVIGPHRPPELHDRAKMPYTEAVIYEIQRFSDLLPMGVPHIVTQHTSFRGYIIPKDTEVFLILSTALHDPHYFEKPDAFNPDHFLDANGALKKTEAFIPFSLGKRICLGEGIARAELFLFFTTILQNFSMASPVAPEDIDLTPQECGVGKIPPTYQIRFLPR
# PROTOCOL_DETAILS: Fluorimetric CYP inhibition assay, CYP2B6-EFC
I'd be grateful if you could share measured IC50 for these entries.

CC(C)(CCCCCCCCCCC(C)(C)CC(=O)O)CC(=O)O [M16ββ]; > 100 µM

Here's the next entry for you.
(Q) So what does the record say about IC50 for CC(C)(CCCCCCCCCCCCC(C)(C)C(=O)O)C(=O)O [M16αα] ?
(A) > 100 µM
